system: Escherichia coli; test: Antimicrobial activity against Escherichia coli at 1 umol/disk after 24 hrs by disk diffusion assay; type: functional
Active and inactive are the calls of the source. The calls are words filed in the database; no cut-off is given here.
Assay endpoint: inhibition zone (IZ)

The cases that follow already have their inhibition zone (IZ) on record.
| Molecule | inhibition zone (IZ) |
| --- | --- |
| N#Cc1c(-c2ccco2)cc(-c2ccc(Nc3nc(Nc4ccccc4)nc(Nc4ccccc4)n3)cc2)nc1N | inactive |
| CN[C@@H]1[C@H](O[C@H]2[C@H](O[C@H]3[C@H](O)[C@@H](O)[C@H](N=C(N)N)[C@@H](O)[C@@H]3N=C(N)N)O[C@@H](C)[C@]2(O)C=O)O[C@@H](CO)[C@H](O)[C@H]1O [STREPTOMYCIN] | 0.06 millimeter |
| O=C(/C=C/c1cccs1)c1ccc(Nc2nc(Nc3ccccc3)nc(Nc3ccccc3)n2)cc1 | inactive |
| Nc1nc(-c2ccc(Nc3nc(Nc4ccccc4)nc(Nc4ccccc4)n3)cc2)cc(-c2cccs2)n1 | inactive |
| Nc1nc(-c2ccc(Cl)cc2)cc(-c2ccc(Nc3nc(Nc4ccccc4)nc(Nc4ccccc4)n3)cc2)n1 | inactive |

Then there is this molecule:
The molecule identified as CC(=O)N1N=C(c2ccc(Nc3nc(Nc4ccccc4)nc(Nc4ccccc4)n3)cc2)CC1c1ccco1 (stereo unspecified) registered its inhibition zone (IZ) at inactive

###

system: Bacillus cereus; assay: Antimicrobial activity against Bacillus cereus after 24 hrs by microdilution technique; type: functional
Assay endpoint: MIC (µM)
The answer is to be given in µM; state only the numeric part.

Briefly, MIC measured for "Nc1nc(-c2ccc(Nc3nc(Nc4ccccc4)nc(Nc4ccccc4)n3)cc2)cc(-c2ccco2)n1" : 195

Quick note, MIC for CC(=O)N1N=C(c2ccc(Nc3nc(Nc4ccccc4)nc(Nc4ccccc4)n3)cc2)CC1c1ccco1 (stereo unspecified) landed at 378

MIC reading for "O=C(/C=C/c1ccc(Cl)cc1)c1ccc(Nc2nc(Nc3ccccc3)nc(Nc3ccccc3)n2)cc1" : 193

// recorded MIC for CN[C@@H]1[C@H](O[C@H]2[C@H](O[C@H]3[C@H](O)[C@@H](O)[C@H](N=C(N)N)[C@@H](O)[C@@H]3N=C(N)N)O[C@@H](C)[C@]2(O)C=O)O[C@@H](CO)[C@H](O)[C@H]1O [STREPTOMYCIN] : 43

Per the record, "N#Cc1c(-c2ccco2)cc(-c2ccc(Nc3nc(Nc4ccccc4)nc(Nc4ccccc4)n3)cc2)nc1N" has MIC of 93

Entry CC(=O)N1N=C(c2ccc(Nc3nc(Nc4ccccc4)nc(Nc4ccccc4)n3)cc2)CC1c1ccc([N+](=O)[O-])cc1 (stereo unspecified) ; MIC = 85

// field: MIC; key: "N#Cc1c(-c2cccs2)cc(-c2ccc(Nc3nc(Nc4ccccc4)nc(Nc4ccccc4)n3)cc2)nc1N" ; value = 45

# MIC of CC(=O)N1N=C(c2ccc(Nc3nc(Nc4ccccc4)nc(Nc4ccccc4)n3)cc2)CC1c1cccs1 (stereo unspecified) = 188

# compound "O=C(/C=C/c1ccco1)c1ccc(Nc2nc(Nc3ccccc3)nc(Nc3ccccc3)n2)cc1" ; its MIC = 211

get_value(item= "Nc1nc(-c2ccc(Nc3nc(Nc4ccccc4)nc(Nc4ccccc4)n3)cc2)cc(-c2ccc([N+](=O)[O-])cc2)n1" , readout=MIC) returns 176

MIC measured on "O=C(/C=C/c1cccs1)c1ccc(Nc2nc(Nc3ccccc3)nc(Nc3ccccc3)n2)cc1" = 204

// field: MIC; key: "N#Cc1c(-c2ccc(Cl)cc2)cc(-c2ccc(Nc3nc(Nc4ccccc4)nc(Nc4ccccc4)n3)cc2)nc1N" ; value = 172

The measured MIC associated with COc1ccccc1C1CC(c2ccc(Nc3nc(Nc4ccccc4)nc(Nc4ccccc4)n3)cc2)=NN1C(C)=O (stereo unspecified) reads 175

compound "Nc1nc(-c2ccc(Cl)cc2)cc(-c2ccc(Nc3nc(Nc4ccccc4)nc(Nc4ccccc4)n3)cc2)n1" , MIC observed: 89.5

Reported MIC of CC1(C)S[C@@H]2[C@H](NC(=O)[C@H](N)c3ccccc3)C(=O)N2[C@H]1C(=O)O [AMPICILLIN] : 248

MIC measured on "COc1ccccc1-c1cc(-c2ccc(Nc3nc(Nc4ccccc4)nc(Nc4ccccc4)n3)cc2)nc(N)c1C#N" = 86.5
